# systemUnderTest: T1, rhIL-1RAcP/Fc Chimera (human, UniProt Q9NPH3 21-359)
# T1 construct: also called P013_03; P013-03
# T1 sequence (looked up): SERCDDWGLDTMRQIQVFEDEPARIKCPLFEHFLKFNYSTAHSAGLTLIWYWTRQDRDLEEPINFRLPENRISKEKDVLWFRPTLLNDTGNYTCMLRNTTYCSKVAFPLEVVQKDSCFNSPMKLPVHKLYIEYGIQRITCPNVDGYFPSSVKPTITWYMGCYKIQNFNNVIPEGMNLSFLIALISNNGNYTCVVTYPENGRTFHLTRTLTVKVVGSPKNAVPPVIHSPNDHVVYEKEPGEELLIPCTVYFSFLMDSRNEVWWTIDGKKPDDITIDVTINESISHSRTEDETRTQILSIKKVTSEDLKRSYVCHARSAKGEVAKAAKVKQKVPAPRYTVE
# protocolText: ELISA, primary supernatant, coated hu-IL-1RAcP-Fc
# Method: Microtiter plates were coated IL-1RACP and/or IL12Rβ1 protein (recombinant Fc chimeric conjugates of human IL-1RACP or IL12Rβ1). After a blocking process, specific antibodies from B-cell supernatants bind to the targets and are then detected by a POD-labeled anti-rabbit IgG antibody. […] 12.5 μL 0.5 μg/mL IL-1RACP protein in PBS was transferred to a microtiter plate, incubated and washed 3× with Wash Buffer. […] Absorbance (Optical Density O.D.) was read at 450 nm/620 nm.
measuredParameter: hu-IL1RaP ELISA (OD)
Output spec: scalar in OD, unitless text.

// lookup hu-IL1RaP ELISA (OD) for P013.S.02.B.D02 (antibody, V domains shown, rabbit monoclonal antibody; also called P013.A.00086.F05) VH: QSLEESGGDLVKPGASLKLSCTASGVSFSSAYWMCWVRQAPGKGLEWIACIYAGSSGSTYYASWAKGRFTISKTSSTTVTLQMTSLTAADTATYFCARHAAWFELDLWGPGTLVTVSS VL: ALVMTQTPSPVSAAVGGTVTINCQASQNIASAYLSWYQQKPGQPPKLLIYAASTLTDGVPSRFKGSGSVTEFTLTISGVQSDDAATYYCAGYKSYTDDEFAFGGGTEVVVK
3.3

// lookup hu-IL1RaP ELISA (OD) for P013.S.02.B.E04 (antibody, V domains shown, rabbit monoclonal antibody; also called P013.A.00088.A02) VH: QSLEESGGDLVKPGASLTLTCTASGFSLSSGGMSWVRQAPGKGLGWIGYINTGSGSTYYASWVNGRFTISKTSSTTVSLQMTSLTAADTATYFCAGGLPSDLWGPGTLVTVSS VL: DIVMTQTPSSVEAAVGGTVTIKCQASQSINSRLAWYQQKPGQPPKLLIYSASTLASGVSSRFKGSGSGTEFTLTISDLESADGATYYCLSHYLTSSSSYGDAFGGGTEVVVK
3.6
